Tested system: HDAC6 enzyme (Homo sapiens, UniProt Q9UBN7)
Construct: transducing full length HDAC6 gene into Sf-9 insect cells; GST; purchased SignalChem; host or cells: Sf-9 insect cells
Sequence (Q9UBN7 whole entry): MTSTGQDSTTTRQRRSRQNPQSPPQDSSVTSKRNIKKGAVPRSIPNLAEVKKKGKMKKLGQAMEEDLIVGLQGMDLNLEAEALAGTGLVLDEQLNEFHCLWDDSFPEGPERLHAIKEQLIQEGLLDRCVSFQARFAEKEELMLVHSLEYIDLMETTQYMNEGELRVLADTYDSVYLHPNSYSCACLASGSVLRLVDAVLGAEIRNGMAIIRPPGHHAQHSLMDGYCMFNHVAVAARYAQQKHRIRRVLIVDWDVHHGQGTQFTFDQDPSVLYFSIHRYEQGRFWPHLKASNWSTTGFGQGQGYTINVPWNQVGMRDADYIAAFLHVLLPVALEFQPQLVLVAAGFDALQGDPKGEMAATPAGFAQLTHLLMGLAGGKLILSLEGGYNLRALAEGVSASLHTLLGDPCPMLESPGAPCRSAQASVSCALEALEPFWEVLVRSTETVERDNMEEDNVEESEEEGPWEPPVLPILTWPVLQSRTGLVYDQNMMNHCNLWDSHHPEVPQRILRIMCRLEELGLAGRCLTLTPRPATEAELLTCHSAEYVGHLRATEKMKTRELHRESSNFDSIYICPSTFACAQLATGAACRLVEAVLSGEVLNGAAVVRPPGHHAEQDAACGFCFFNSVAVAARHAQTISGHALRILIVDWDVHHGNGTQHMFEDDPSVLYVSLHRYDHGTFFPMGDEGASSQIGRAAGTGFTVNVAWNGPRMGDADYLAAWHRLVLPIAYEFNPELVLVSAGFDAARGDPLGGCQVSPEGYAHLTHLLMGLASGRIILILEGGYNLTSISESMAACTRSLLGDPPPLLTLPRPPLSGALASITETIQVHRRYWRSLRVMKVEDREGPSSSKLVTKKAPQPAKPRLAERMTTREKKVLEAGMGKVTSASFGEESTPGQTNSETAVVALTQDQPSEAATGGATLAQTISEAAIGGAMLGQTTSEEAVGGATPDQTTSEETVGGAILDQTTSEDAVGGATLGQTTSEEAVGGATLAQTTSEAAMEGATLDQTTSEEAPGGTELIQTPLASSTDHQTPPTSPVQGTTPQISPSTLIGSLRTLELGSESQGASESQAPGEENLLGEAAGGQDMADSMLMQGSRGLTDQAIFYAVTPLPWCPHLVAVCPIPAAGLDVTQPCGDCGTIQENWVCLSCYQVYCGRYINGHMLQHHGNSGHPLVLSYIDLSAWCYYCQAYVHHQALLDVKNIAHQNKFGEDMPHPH
Measurement protocol: HDAC6 enzyme inhibitory activity (HDAC-Glo I/II Assay kit)
Assay type: biochemical
Condition: 10 μM; wells without enzyme = 100% inhibition; read-out: HDAC6 inhibitory rate (%) (10 μM)
Endpoint label: inhibition at 10 µM (%)
Note: unit % is implicit; provide only the numeric part.

Below, each entry is followed by its recorded inhibition at 10 µM result.
Compound: N[C@H]1COCC[C@H]1N1Cc2c(F)cc(-c3nnc(C(F)F)o3)cc2C1=O
inhibition at 10 µM (%): 87

Compound: O=C1c2cc(-c3nnc(C(F)F)o3)ccc2CN1Cc1cc(C2CC2)on1
inhibition at 10 µM (%): 94

Compound: N#Cc1ccc(N2Cc3ccc(-c4nnc(C(F)F)o4)cc3C2=O)c(-c2cnn(C(F)F)c2)c1
inhibition at 10 µM (%): 100

Compound: O=C1c2ccc(-c3nnc(C(F)F)o3)cc2C(=O)N1C[C@H]1COCCN1S(=O)(=O)C1CC1
inhibition at 10 µM (%): 99

Compound: O=C1c2cc(-c3nnc(C(F)F)o3)ccc2CN1[C@@H]1CCCC[C@H]1c1nc(C2CC2)no1 (racemic)
inhibition at 10 µM (%): 100

Ask: Request the reported inhibition at 10 µM associated with C[C@@H](c1ccc(F)cc1)N1Cc2ncc(-c3nnc(C(F)F)o3)cc2C1=O
Result: 100

Ask: Next record, please: O=C1c2cc(-c3nnc(C(F)F)o3)ccc2CN1[C@@H]1CCCC[C@H]1NC(=O)C(F)(F)F
Result: 102

Ask: Okay, and O=C1c2cc(-c3nnc(C(F)F)o3)cc(F)c2CN1[C@@H]1CCOC[C@@H]1NCC(F)(F)C(F)(F)F ?
Result: 101

====

Reported inhibition at 10 µM values for a set of molecules
Tested system: HDAC6 enzyme (Homo sapiens, UniProt Q9UBN7)
Construct: transducing full length HDAC6 gene into Sf-9 insect cells; GST; purchased SignalChem; host or cells: Sf-9 insect cells
Measurement protocol: HDAC6 enzyme inhibitory activity (HDAC-Glo I/II Assay kit)
Assay type: biochemical
Condition: 10 μM; wells without enzyme = 100% inhibition; read-out: HDAC6 inhibitory rate (%) (10 μM)
Provide only the numeric value, understood in %.

Check out these entries, answers already filled in.
Molecule: O=C1c2cc(-c3nnc(C(F)F)o3)ccc2CN1c1ccc(OC(F)(F)F)cc1-c1ccccc1
inhibition at 10 µM / %: 100
--
Molecule: CC(F)(F)C(=O)N[C@@H]1CC(F)(F)CC[C@H]1N1Cc2ccc(-c3nnc(C(F)F)o3)cc2C1=O
inhibition at 10 µM / %: 101
--
Molecule: O=C1c2cc(-c3nnc(C(F)F)o3)ccc2CN1c1ccccc1-c1cccc2c1OCC2
inhibition at 10 µM / %: 101
--
Molecule: Cc1ccc(-c2ccccc2N2Cc3ccc(-c4nnc(C(F)F)o4)cc3C2=O)cc1
inhibition at 10 µM / %: 98
--
Molecule: Cn1cc(-c2ccccc2)c(N2Cc3ccc(-c4nnc(C(F)F)o4)cc3C2=O)n1
inhibition at 10 µM / %: 98
--
Molecule: Cn1cc(-c2cc(F)ccc2N2Cc3c(F)cc(-c4nnc(C(F)F)o4)cc3C2=O)cn1
inhibition at 10 µM / %: 98
--
Molecule: O=C(N[C@@H]1[C@H](N2Cc3ccc(-c4nnc(C(F)F)o4)cc3C2=O)CCCC1(F)F)C(F)F
inhibition at 10 µM / %: 100
--
Molecule: O=C1c2cc(-c3nnc(C(F)F)o3)cnc2CN1[C@@H]1CCCC[C@H]1n1cccn1 (racemic) [Example 526]
inhibition at 10 µM / %: 101

Ask: Requested read-out: inhibition at 10 µM. Entry: CC(F)(F)C(=O)N[C@@H]1CCC(F)(F)C[C@H]1N1Cc2ncc(-c3nnc(C(F)F)o3)cc2C1=O
Result: 100

Data origin, for the record: patent US10435399B2
